Values from patent US11076594B2

Listed here are compounds together with their documented chickweed weed controlling effect (activity level).
System: chickweed
assay-text: wheat field resistant broadleaf weed control, greenhouse spray at 4 leaf stage
Assay type: in vivo
Set-up: key: Level 10: completely dead; Level 9: above 95% growth control rate; Level 8: above 90% growth control rate; Level 7: above 80% growth control rate; Level 6: above 70% growth control rate; Level 5: above 60% growth control rate; Level 4: above 50% growth control rate; Level 3: above 20% growth control rate; Level 2: 5%-20% growth control rate; Level 1: below 5% growth control rate
experimental-context: 250 g/ha of the active substance; 4 weeks after treatment; ALS inhibitor resistant
Response field accepts a number only; no unit should be typed.

In plain terms, CCc1nn(C)c(O)c1C(=O)c1ccc(C(F)(F)F)c(N2CCCCCC2=O)c1Cl [Compound 120] has a documented chickweed weed controlling effect (activity level) of 10

In plain terms, CCOc1c(C(=O)Oc2c(C(=O)c3ccc(C(F)(F)F)c(N4CCCCCC4=O)c3Cl)c(C)nn2C)cnn1C [Compound 056] has a documented chickweed weed controlling effect (activity level) of 10

In plain terms, CCOc1c(C(=O)Oc2c(C(=O)c3ccc(C(F)(F)F)c(-n4cc(C)cn4)c3Cl)cnn2C)cnn1C [Compound 081] has a documented chickweed weed controlling effect (activity level) of 10

In plain terms, CCc1nn(C)c(OC(=O)c2cn(C)nc2C)c1C(=O)c1ccc(C(F)(F)F)c(-n2cc(C)cn2)c1Cl [Compound 141] has a documented chickweed weed controlling effect (activity level) of 10

In plain terms, CCOc1c(C(=O)Oc2c(C(=O)c3ccc(C(F)(F)F)c(N4CCCCC4=O)c3Cl)c(C3CC3)nn2C)cnn1C [Compound 048] has a documented chickweed weed controlling effect (activity level) of 10

In plain terms, CCOc1c(C(=O)Oc2c(C(=O)c3ccc(C(F)(F)F)c(N4CCCCCC4=O)c3Cl)cnn2C)cnn1C [Compound 051] has a documented chickweed weed controlling effect (activity level) of 10

* * *

Test system: wheat
assay-text: wheat field test, crop selectivity, greenhouse spray at 4 leaf stage
Format: in vivo
experimental-context: 16 g/mu; sprayed at 4 leaf stage; 4 weeks after treatment
assay-endpoint: Wheat (activity level, crop damage)

In plain terms, Cc1nn(C)c(O)c1C(=O)c1ccc(C(F)(F)F)c(N2CCCCC2=O)c1Cl has a documented Wheat (activity level, crop damage) of 0

* * *

Listed here are compounds together with their documented effect on crop, Rice (level).
System: rice
assay-text: post-emergence stage experiment, crop (Table 1)
Format: in vivo
Set-up: key: Level 10: completely dead; Level 9: above 95% growth control rate; Level 8: above 90% growth control rate; Level 7: above 80% growth control rate; Level 6: above 70% growth control rate; Level 5: above 60% growth control rate; Level 4: above 50% growth control rate; Level 3: above 20% growth control rate; Level 2: 5%-20% growth control rate; Level 1: below 5% growth control rate
experimental-context: post-emergence spray at 4-5 leaf stage, 250 g/ha active ingredient with 450 kg/ha water, rated after 3 weeks in greenhouse

Answered examples (2):
* CCc1nn(C)c(O)c1C(=O)c1ccc(C(F)(F)F)c(-n2cc(C)cn2)c1Cl | 10
* Cc1nn(C)cc1C(=O)Oc1c(C(=O)c2ccc(C(F)(F)F)c(N3CCCCCC3=O)c2Cl)c(C)nn1C | 2 (Level 2: 5%-20% growth control rate)

In plain terms, Cn1ncc(C(=O)c2ccc(C(F)(F)F)c(-n3cccn3)c2Cl)c1O has a documented effect on crop, Rice (level) of 2 (Level 2: 5%-20% growth control rate)

In plain terms, COCCCN(C(C)=O)c1c(C(F)(F)F)ccc(C(=O)c2c(C)nn(C)c2O)c1Cl has a documented effect on crop, Rice (level) of 0
